- experimental.target: human TGR5 receptor (Homo sapiens)
- Sequence (Q8TDU6 whole entry): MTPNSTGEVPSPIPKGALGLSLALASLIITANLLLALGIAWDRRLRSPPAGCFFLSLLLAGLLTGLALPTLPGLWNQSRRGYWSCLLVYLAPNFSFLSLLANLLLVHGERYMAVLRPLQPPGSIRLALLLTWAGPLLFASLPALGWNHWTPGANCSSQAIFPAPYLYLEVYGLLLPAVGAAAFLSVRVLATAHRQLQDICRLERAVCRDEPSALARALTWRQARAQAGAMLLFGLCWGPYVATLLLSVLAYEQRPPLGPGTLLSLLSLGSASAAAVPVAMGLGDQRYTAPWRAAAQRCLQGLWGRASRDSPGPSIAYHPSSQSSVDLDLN
- assay.procedure: Human TGR5 cAMP production assay
- condition.summary: human TGR5, luminescent cAMP assay; coded A-D; read-out: Human TGR5 Lum. cAMP Activity (EC50)
- Procedure: Human TGR5 cAMP Production Assay We evaluated the Compounds of the present invention for their ability to induce cAMP production using CHO-K1 cells overexpressing the human TGR5 receptor. […] Test compounds were serially diluted (half-log dilutions) in DMSO and then further diluted 1:50 in PBS, 10 mM HEPES buffer. […] Luminescent signal was then detected using the Viewlux instrument (Perkin-Elmer, Waltham, Mass.). […]
Below, each of the molecules is paired with its reported EC50 value.

Please review the entries below; each comes with its answer.
[
  {
    "molecule": "CC(C)(NS(=O)(=O)c1cccc(C(F)(F)F)c1)c1cccc(-c2ccncc2Cl)c1",
    "result": "100 to 999 nM"
  },
  {
    "molecule": "Nc1cnccc1-c1cccc(CNS(=O)(=O)c2cccc(C(F)(F)F)c2)c1",
    "result": "100 to 999 nM"
  },
  {
    "molecule": "Cc1cnccc1-c1cccc(C(C)(C)NS(=O)(=O)c2ccccc2[N+](=O)[O-])c1",
    "result": "< 100 nM"
  },
  {
    "molecule": "Cc1c(Cl)cccc1S(=O)(=O)N(CCCC(=O)O)[C@@H](C)c1cccc(-c2ccncc2)c1 [Compound 14AD]",
    "result": "100 to 999 nM"
  },
  {
    "molecule": "Cc1cc2nccn2cc1-c1cccc(C(C)(C)NS(=O)(=O)c2ccccc2C(F)(F)F)c1",
    "result": "100 to 999 nM"
  }
]

Given item `Cc1cnccc1-c1cccc(C(C)(C)NS(=O)(=O)c2ccccc2C(F)(F)F)c1` , the value recorded as its EC50 is < 100 nM

Given item CCc1cnccc1-c1cccc([C@H](C)N(CCCC(=O)O)S(=O)(=O)c2cccc(Cl)c2C)c1 [Compound 16AB] , the value recorded as its EC50 is < 100 nM

Given item `CCc1cnccc1-c1cccc([C@@H](C)NS(=O)(=O)c2ccccc2C(F)(F)F)c1` , the value recorded as its EC50 is < 100 nM

Given item `Cc1noc(C)c1-c1cccc(CNS(=O)(=O)c2ccc(Cl)c(C(F)(F)F)c2)c1` , the value recorded as its EC50 is 1000 to 30000 nM

Given item `CCOc1cnccc1-c1cccc(C(C)(C)NS(=O)(=O)c2cccc(C(F)(F)F)c2)c1` , the value recorded as its EC50 is < 100 nM

Given item `COc1cnccc1-c1cccc(C(C)(C)NS(=O)(=O)c2cccc(C)c2)c1` , the value recorded as its EC50 is 100 to 999 nM

Given item Cc1cnccc1-c1cccc(C(C)(C)N(CCCC(=O)NCCS(=O)(=O)O)S(=O)(=O)c2ccccc2C(F)(F)F)c1 [Compound 20AA] , the value recorded as its EC50 is < 100 nM

---

Below, each of the molecules is paired with its reported EC50 value.
- experimental.target: mouse TGR5 receptor (Mus musculus, UniProt Q80SS6)
- Construct: expressed in transfected cells; host or cells: HEK293-EBNA (293 c18, ATCC CRL10852), Hygromycin B selection
- Sequence (Q80SS6 1-329): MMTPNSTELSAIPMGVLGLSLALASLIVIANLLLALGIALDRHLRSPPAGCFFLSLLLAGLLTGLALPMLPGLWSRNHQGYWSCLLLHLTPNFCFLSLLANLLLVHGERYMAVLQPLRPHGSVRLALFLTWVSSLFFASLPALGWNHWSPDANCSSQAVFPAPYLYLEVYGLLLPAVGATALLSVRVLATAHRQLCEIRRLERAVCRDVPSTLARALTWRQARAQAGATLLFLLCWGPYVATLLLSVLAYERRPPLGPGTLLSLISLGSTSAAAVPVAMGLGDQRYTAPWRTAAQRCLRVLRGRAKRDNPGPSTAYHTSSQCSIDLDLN
- assay.procedure: Mouse TGR5 cAMP production assay (luminescent, DiscoveRx cAMP XS+)
- Type: cell-based
- condition.summary: HEK293-EBNA cells overexpressing mouse TGR5, luminescent cAMP XS+; coded A-D; read-out: Mouse TGR5 Lum. cAMP Activity (EC50)

[
  {
    "molecule": "CC(C)(NS(=O)(=O)c1cccc(C(F)(F)F)c1)c1cccc(-c2ccncc2F)c1 [Compound 1AE]",
    "value.type": "EC50",
    "result": "1 to 30 µM"
  }
]

EC50 for mouse TGR5 receptor (Mus musculus, UniProt Q80SS6) with input Cc1noc(C)c1-c1cccc(CNS(=O)(=O)c2ccc(Cl)cc2)c1 [Compound 1AB] equals > 30 µM

EC50 for mouse TGR5 receptor (Mus musculus, UniProt Q80SS6) with input CC(C)(NS(=O)(=O)c1cccc(C(F)(F)F)c1)c1cccc(-c2ccnc(C(F)(F)F)c2)c1 [Compound 1AH] equals > 30 µM
